# test.summary: Oral bioavailability in Sprague-Dawley rat at 2 mg/kg measured by LC-MS/MS method
# Format: ADME, organism-based
# details: in vivo
experimental.endpoint: bioavailability

// query Could you share which bioavailability value was measured for CCCN(CCC)CCCCOc1cc2oc3cc(OCCCCN(CCC)CCC)c(OC)c(CC=C(C)C)c3c(=O)c2c(O)c1CC=C(C)C ?
// result 14 to 15%

----------
# test.summary: Cytotoxicity against human corneal fibroblasts assessed as increase in LDH level measured after 4 hrs by Cytotox-one […] assay
# Type: toxicity, Corneal fibroblast
Would you mind telling me the reported CC50 at 4 h of each entry?

// query Could you share which CC50 at 4 h value was measured for CCN(CC)CCCCOc1cc2oc3cc(OCCCCN(CC)CC)c(OC)c(CC=C(C)C)c3c(=O)c2c(O)c1CC=C(C)C ?
// result > 150 µM

// query Could you share which CC50 at 4 h value was measured for CCN(CC)CCOc1cc2oc3cc(OCCN(CC)CC)c(OC)c(CC=C(C)C)c3c(=O)c2c(O)c1CC=C(C)C ?
// result 92.6 µM

// query Could you share which CC50 at 4 h value was measured for CCN(CC)CCCCCCCOc1cc2oc3cc(OCCCCCCCN(CC)CC)c(OC)c(CC=C(C)C)c3c(=O)c2c(O)c1CC=C(C)C ?
// result > 150 µM

// query Could you share which CC50 at 4 h value was measured for CCN(CC)CCCCOc1cc2oc3cc(OCCCCN(CC)CC)c(OC)c(CC=C(C)C)c3c(=O)c2c(OCCCCN(CC)CC)c1CC=C(C)C ?
// result > 150 µM

----------
Would you mind telling me the reported metabolised at 0.5 h, 1 µM of each entry?
# test.summary: Drug metabolism in rat liver microsomes at 1 uM preincubated for 5 mins followed by NADPH addition measured up to 30 mins by LC-MS/MS method
# Type: ADME
# details: read-out: Drug metabolism
Write down the numeric answer in % and omit the unit.

// query Could you share which metabolised at 0.5 h, 1 µM value was measured for COC(=O)C(CCCNC(=N)N)NC(=O)COc1cc2oc3cc(OCC(=O)NC(CCCNC(=N)N)C(=O)OC)c(OC)c(CC=C(C)C)c3c(=O)c2c(O)c1CC=C(C)C (stereo not drawn) ?
// result 12.6

// query Could you share which metabolised at 0.5 h, 1 µM value was measured for COc1c(OCC(=O)NC(CCCNC(=N)N)C(N)=O)cc2oc3cc(OCC(=O)NC(CCCNC(=N)N)C(N)=O)c(CC=C(C)C)c(O)c3c(=O)c2c1CC=C(C)C (stereo not drawn) ?
// result 14.4

// query Could you share which metabolised at 0.5 h, 1 µM value was measured for CCN(CC)CCCCOc1cc2oc3cc(OCCCCN(CC)CC)c(OC)c(CC=C(C)C)c3c(=O)c2c(OCCCCN(CC)CC)c1CC=C(C)C ?
// result 11.6

// query Could you share which metabolised at 0.5 h, 1 µM value was measured for COc1c(OCCCCN2CCOCC2)cc2oc3cc(OCCCCN4CCOCC4)c(CC=C(C)C)c(O)c3c(=O)c2c1CC=C(C)C ?
// result 0

// query Could you share which metabolised at 0.5 h, 1 µM value was measured for CCCN(CCC)CCCCOc1cc2oc3cc(OCCCCN(CCC)CCC)c(OC)c(CC=C(C)C)c3c(=O)c2c(O)c1CC=C(C)C ?
// result 10

// query Could you share which metabolised at 0.5 h, 1 µM value was measured for CCN(CC)CCCCCCCOc1cc2oc3cc(OCCCCCCCN(CC)CC)c(OC)c(CC=C(C)C)c3c(=O)c2c(O)c1CC=C(C)C ?
// result 13.9

// query Could you share which metabolised at 0.5 h, 1 µM value was measured for CCN(CC)CCOc1cc2oc3cc(OCCN(CC)CC)c(OC)c(CC=C(C)C)c3c(=O)c2c(O)c1CC=C(C)C ?
// result 82.8

// query Could you share which metabolised at 0.5 h, 1 µM value was measured for CCN(CC)CCCCOc1cc2oc3cc(OCCCCN(CC)CC)c(OC)c(CC=C(C)C)c3c(=O)c2c(O)c1CC=C(C)C ?
// result 12.1

----------
# test.summary: Hemolytic activity against New Zealand white rabbit RBC assessed as hemoglobin release measured after 1 hr
# Assay type: ADME, cell-based, Oryctolagus cuniculus, Erythrocyte
# details: red blood cells
Would you mind telling me the reported HC50 at 1 h of each entry?
Write down the numeric answer in µM and omit the unit.

// query Could you share which HC50 at 1 h value was measured for CCN(CC)CCCCCCCOc1cc2oc3cc(OCCCCCCCN(CC)CC)c(OC)c(CC=C(C)C)c3c(=O)c2c(O)c1CC=C(C)C ?
// result 86

// query Could you share which HC50 at 1 h value was measured for COC(=O)C(CCCNC(=N)N)NC(=O)COc1cc2oc3cc(OCC(=O)NC(CCCNC(=N)N)C(=O)OC)c(OC)c(CC=C(C)C)c3c(=O)c2c(O)c1CC=C(C)C (configuration not stated) ?
// result 309

// query Could you share which HC50 at 1 h value was measured for COc1c(OCC(=O)NC(CCCNC(=N)N)C(N)=O)cc2oc3cc(OCC(=O)NC(CCCNC(=N)N)C(N)=O)c(CC=C(C)C)c(O)c3c(=O)c2c1CC=C(C)C (configuration not stated) ?
// result 183

----------
# test.summary: Cytotoxicity against human corneal fibroblasts assessed as increase in LDH level measured after 4 hrs by Cytotox-one […] assay
# Format: toxicity, Corneal fibroblast
experimental.endpoint: CC50 at 4 h

// query Could you share which CC50 at 4 h value was measured for COc1c(OCC(=O)NC(CCCNC(=N)N)C(N)=O)cc2oc3cc(OCC(=O)NC(CCCNC(=N)N)C(N)=O)c(CC=C(C)C)c(O)c3c(=O)c2c1CC=C(C)C (centres undefined) ?
// result 119 µM

// query Could you share which CC50 at 4 h value was measured for CCCN(CCC)CCCCOc1cc2oc3cc(OCCCCN(CCC)CCC)c(OC)c(CC=C(C)C)c3c(=O)c2c(O)c1CC=C(C)C ?
// result > 150 µM

// query Could you share which CC50 at 4 h value was measured for COC(=O)C(CCCNC(=N)N)NC(=O)COc1cc2oc3cc(OCC(=O)NC(CCCNC(=N)N)C(=O)OC)c(OC)c(CC=C(C)C)c3c(=O)c2c(O)c1CC=C(C)C (centres undefined) ?
// result 13.4 µM

// query Could you share which CC50 at 4 h value was measured for COc1c(OCCCCN2CCOCC2)cc2oc3cc(OCCCCN4CCOCC4)c(CC=C(C)C)c(O)c3c(=O)c2c1CC=C(C)C ?
// result > 150 µM

----------
# Test system: Staphylococcus aureus
# test.summary: Antibacterial activity against methicillin-resistant Staphylococcus aureus isolate DM21455
# Type: functional
Would you mind telling me the reported MIC of each entry?
Write down the numeric answer in µM and omit the unit.

// query Could you share which MIC value was measured for COc1c(OCC(O)CNCCNC(=N)N)cc2oc3cc(OCC(O)CNCCNC(=N)N)c(CC=C(C)C)c(O)c3c(=O)c2c1CC=C(C)C (centres undefined) ?
// result 5

// query Could you share which MIC value was measured for COC(=O)C(CCCNC(=N)N)NC(=O)COc1cc2oc3cc(OCC(=O)NC(CCCNC(=N)N)C(=O)OC)c(OC)c(CC=C(C)C)c3c(=O)c2c(O)c1CC=C(C)C (centres undefined) ?
// result 2.5

// query Could you share which MIC value was measured for COc1c(OCC(O)CNCCN)cc2oc3cc(OCC(O)CNCCN)c(CC=C(C)C)c(O)c3c(=O)c2c1CC=C(C)C (centres undefined) ?
// result 5

// query Could you share which MIC value was measured for COc1c(OCC(O)CNCCNCCNCCN)cc2oc3cc(OCC(O)CNCCNCCNCCN)c(CC=C(C)C)c(O)c3c(=O)c2c1CC=C(C)C (centres undefined) ?
// result 15

----------
# test.summary: Terminal half life in Sprague-Dawley rat at 2 mg/kg, iv administered as single bolus dose measured by LC-MS/MS method
# Format: ADME, organism-based
# details: in vivo, read-out: beta t1/2 (converted)
experimental.endpoint: half-life (h)
Write down the numeric answer in h and omit the unit.

// query Could you share which half-life value was measured for CCCN(CCC)CCCCOc1cc2oc3cc(OCCCCN(CCC)CCC)c(OC)c(CC=C(C)C)c3c(=O)c2c(O)c1CC=C(C)C ?
// result 9.93

----------
# test.summary: Tmax in Sprague-Dawley rat at 2 mg/kg administered via oral gavage measured by LC-MS/MS method
# Assay type: ADME, organism-based
# details: in vivo
experimental.endpoint: Tmax (h)
Write down the numeric answer in h and omit the unit.

// query Could you share which Tmax value was measured for CCCN(CCC)CCCCOc1cc2oc3cc(OCCCCN(CCC)CCC)c(OC)c(CC=C(C)C)c3c(=O)c2c(O)c1CC=C(C)C ?
// result 4

----------
# measured.on: CYP3A4 (Homo sapiens)
# Sequence (P08684 whole entry): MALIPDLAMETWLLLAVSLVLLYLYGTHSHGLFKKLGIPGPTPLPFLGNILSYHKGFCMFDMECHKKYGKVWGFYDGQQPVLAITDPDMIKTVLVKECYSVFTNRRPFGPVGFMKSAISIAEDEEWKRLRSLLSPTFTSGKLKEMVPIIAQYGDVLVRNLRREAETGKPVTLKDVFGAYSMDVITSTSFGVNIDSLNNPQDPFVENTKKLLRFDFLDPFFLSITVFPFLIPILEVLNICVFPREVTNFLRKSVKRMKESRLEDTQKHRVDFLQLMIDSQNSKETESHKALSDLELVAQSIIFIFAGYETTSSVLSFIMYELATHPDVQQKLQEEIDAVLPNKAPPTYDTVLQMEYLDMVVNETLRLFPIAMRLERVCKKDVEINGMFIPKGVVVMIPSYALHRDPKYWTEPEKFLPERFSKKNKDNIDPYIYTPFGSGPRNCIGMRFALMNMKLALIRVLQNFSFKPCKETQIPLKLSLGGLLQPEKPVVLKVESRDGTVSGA
# test.summary: Inhibition of CYP3A4 in human liver microsomes at 10 uM using midazolam as substrate preincubated for 5 min followed by NADPH addition measured after 10 mins by LC-MS/MS method relative to control
# Assay type: ADME
# details: probe midazolam
Tag: y if measured inhibition at 10 min, 10 µM is not below 10%, n if it is.

// query Identify whether the reported inhibition at 10 min, 10 µM of the following molecule is 10% or greater: CCN(CC)CCCCOc1cc2oc3cc(OCCCCN(CC)CC)c(OC)c(CC=C(C)C)c3c(=O)c2c(O)c1CC=C(C)C
// result y

// query Identify whether the reported inhibition at 10 min, 10 µM of the following molecule is 10% or greater: CCCN(CCC)CCCCOc1cc2oc3cc(OCCCCN(CCC)CCC)c(OC)c(CC=C(C)C)c3c(=O)c2c(O)c1CC=C(C)C
// result n

// query Identify whether the reported inhibition at 10 min, 10 µM of the following molecule is 10% or greater: COC(=O)C(CCCNC(=N)N)NC(=O)COc1cc2oc3cc(OCC(=O)NC(CCCNC(=N)N)C(=O)OC)c(OC)c(CC=C(C)C)c3c(=O)c2c(O)c1CC=C(C)C (stereo not drawn)
// result y

// query Identify whether the reported inhibition at 10 min, 10 µM of the following molecule is 10% or greater: COc1c(OCCCCN2CCOCC2)cc2oc3cc(OCCCCN4CCOCC4)c(CC=C(C)C)c(O)c3c(=O)c2c1CC=C(C)C
// result y

// query Identify whether the reported inhibition at 10 min, 10 µM of the following molecule is 10% or greater: COc1c(OCC(=O)NC(CCCNC(=N)N)C(N)=O)cc2oc3cc(OCC(=O)NC(CCCNC(=N)N)C(N)=O)c(CC=C(C)C)c(O)c3c(=O)c2c1CC=C(C)C (stereo not drawn)
// result y

// query Identify whether the reported inhibition at 10 min, 10 µM of the following molecule is 10% or greater: CCN(CC)CCOc1cc2oc3cc(OCCN(CC)CC)c(OC)c(CC=C(C)C)c3c(=O)c2c(O)c1CC=C(C)C
// result y

// query Identify whether the reported inhibition at 10 min, 10 µM of the following molecule is 10% or greater: CCN(CC)CCCCOc1cc2oc3cc(OCCCCN(CC)CC)c(OC)c(CC=C(C)C)c3c(=O)c2c(OCCCCN(CC)CC)c1CC=C(C)C
// result y

// query Identify whether the reported inhibition at 10 min, 10 µM of the following molecule is 10% or greater: CCN(CC)CCCCCCCOc1cc2oc3cc(OCCCCCCCN(CC)CC)c(OC)c(CC=C(C)C)c3c(=O)c2c(O)c1CC=C(C)C
// result n
